# procedureSummary: Compound B pharmacokinetics after oral administration of a single dose alone (fasting) and with ritonavir (fed), human subjects
# Type: in vivo
# measurementSetup: plasma, po, 300 mg, single oral dose 300 mg (active dose 270 mg), alone, fasting, median
# Experimental: Nos. 11/008325, filed Dec. 8, 2004, and 60/591,351, filed Jul. 26, 2004, all of which are hereby incorporated by reference for this purpose. A total of 21 human subjects were administered a single 300 mg, 900 mg, 1800 mg, or 3600 mg dose of a spray-dried composition comprising 90 wt % amorphous Compound B and 10 wt % hydroxypropyl methyl cellulose acetate succinate (HPMCAS) under fasting conditions. […]
experimentalEndpoint: Tmax (min)
State the answer as a number, implicitly in min.

Exercise: Look up Tmax for this compound: Cc1c(O)cccc1C(=O)N[C@@H](Cc1ccccc1)[C@H](O)C(=O)N1CC(F)(F)C(C)(C)[C@H]1C(=O)NCC(F)(F)F
Solution: 30

----------
# procedureSummary: Compound A pharmacokinetics after oral administration of a single dose with and without ritonavir, human subjects, fed
# Type: in vivo
# measurementSetup: plasma, po, 1500 mg, single oral dose 1500 mg, without ritonavir, geometric mean, read-out: AUC (area under the concentration-time curve from time 0 to infinity)
experimentalEndpoint: AUC (ng·h/mL)
State the answer as a number, implicitly in ng·h/mL.

Exercise: Look up AUC for this compound: C=CCNC(=O)[C@H]1N(C(=O)[C@@H](O)[C@H](Cc2ccccc2)NC(=O)c2cccc(O)c2C)CSC1(C)C [Compound A]
Solution: 41900

----------
# procedureSummary: Compound A pharmacokinetics after oral administration of a single dose with and without ritonavir, human subjects, fed
# Assay type: in vivo
# measurementSetup: plasma, po, single oral dose 400 mg + ritonavir (100 mg every 12 hours for 3 doses), arithmetic mean, read-out: t½ (terminal phase plasma half-life) (converted)
experimentalEndpoint: half-life

Exercise: Look up half-life for this molecule: C=CCNC(=O)[C@H]1N(C(=O)[C@@H](O)[C@H](Cc2ccccc2)NC(=O)c2cccc(O)c2C)CSC1(C)C
Solution: 8.56 h

----------
# procedureSummary: Compound A pharmacokinetics after oral administration of a single dose with and without ritonavir, human subjects, fed
# Type: in vivo
# measurementSetup: plasma, po, 1000 mg, single oral dose 1000 mg, without ritonavir, geometric mean, read-out: AUC (area under the concentration-time curve from time 0 to infinity)
experimentalEndpoint: AUC (ng·h/mL)
State the answer as a number, implicitly in ng·h/mL.

Exercise: Look up AUC for this compound: C=CCNC(=O)[C@H]1N(C(=O)[C@@H](O)[C@H](Cc2ccccc2)NC(=O)c2cccc(O)c2C)CSC1(C)C
Solution: 16900

----------
# procedureSummary: Compound A pharmacokinetics after oral administration of a single dose with and without ritonavir, human subjects, fed
# Assay type: in vivo
# measurementSetup: plasma, po, 1000 mg, single oral dose 1000 mg, without ritonavir, median
experimentalEndpoint: Tmax (h)
State the answer as a number, implicitly in h.

Exercise: Look up Tmax for this molecule: C=CCNC(=O)[C@H]1N(C(=O)[C@@H](O)[C@H](Cc2ccccc2)NC(=O)c2cccc(O)c2C)CSC1(C)C [Compound A]
Solution: 3

----------
# procedureSummary: Compound A pharmacokinetics after oral administration of a single dose with and without ritonavir, human subjects, fed
# Type: in vivo
# measurementSetup: plasma, po, 3000 mg, single oral dose 3000 mg, without ritonavir, geometric mean
experimentalEndpoint: Cmax (ng/mL)
State the answer as a number, implicitly in ng/mL.

Exercise: Look up Cmax for this compound: C=CCNC(=O)[C@H]1N(C(=O)[C@@H](O)[C@H](Cc2ccccc2)NC(=O)c2cccc(O)c2C)CSC1(C)C
Solution: 11200
